Target: T1, PACAP-R3 (human, UniProt P41587 24-438)
T1 sequence (looked up): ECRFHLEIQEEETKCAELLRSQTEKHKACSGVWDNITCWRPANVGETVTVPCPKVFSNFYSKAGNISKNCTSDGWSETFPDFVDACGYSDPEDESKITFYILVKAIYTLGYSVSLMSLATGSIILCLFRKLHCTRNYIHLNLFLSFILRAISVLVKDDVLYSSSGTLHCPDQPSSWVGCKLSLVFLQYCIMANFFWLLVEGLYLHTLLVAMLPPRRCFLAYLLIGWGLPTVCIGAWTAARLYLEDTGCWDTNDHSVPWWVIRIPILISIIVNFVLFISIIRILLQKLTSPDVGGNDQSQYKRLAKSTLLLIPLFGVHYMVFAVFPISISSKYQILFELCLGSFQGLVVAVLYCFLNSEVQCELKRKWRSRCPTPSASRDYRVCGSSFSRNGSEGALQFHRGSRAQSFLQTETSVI
Experiment: cell-based or functional assay
Would you kindly list R3 Selectivity for each of these binders?
Answer with a number only, understood to be in ratio.

QUERY: Recorded R3 Selectivity of HSDAVFTENYTKLRKQLAAKKYLNDLKK [R3P5] , please.
RESULT: 30

QUERY: Moving on to the next binder: HSDAVFTDNYTRLRKQMAAKKYLNSIFNKR [R3P119]
RESULT: 30

QUERY: Moving on to the next binder: HSDAVFTDNYTRLRKQMAAKKYLNSIKNKH [R3P158]
RESULT: 90

QUERY: Moving on to the next binder: HSDAVFTDNYTRLRKQMAAKKYLNSIKNVR [R3P149]
RESULT: 80

QUERY: Moving on to the next binder: HSDAVFTDNYTRLRKQMARKKYLNSIKNKR [R3P109]
RESULT: 100
